Compiled literature IC50, tested on Ubiquitin carboxyl-terminal hydrolase 7 (Homo sapiens, UniProt Q93009).

- COMPOUND: "CN1CCC(N2CCN(C(=O)C3Cc4cc(Cl)cc(-c5ccnc6[nH]ccc56)c4O3)CC2)CC1 (stereo not shown)"
  IC50: "10000 to 30000 nM"

Quickly give me recorded IC50 for `CS(=O)(=O)NCc1cc2nccc(-c3cc(Cl)cc4c3O[C@@H](c3onc5c3CNCC5)C4)c2s1`
< 1000 nM

// Input: `Cc1cc(Cl)cc(-c2ncnc3cc(CN4C(=O)CN(CC(F)F)C4=O)sc23)c1CN1[C@@H](C)CNC[C@@H]1C` . Output its IC50 only.
< 10 nM

Give the value of IC50 reported for the following: `O=C([C@H]1Cc2cc(Cl)cc(-c3ccnc4ccoc34)c2O1)N1CCNCC1`
< 1000 nM

State its IC50: `O=C1c2ccccc2CN1Cc1cc2nccc(-c3cc(Cl)cc4c3N([C@H]3CCNC3)CCC4)c2s1`
101 to 1000 nM

====

Ubiquitin carboxyl-terminal hydrolase 7 (Homo sapiens, UniProt Q93009) pIC50, compiled from various sources.
pIC50: −log10 of the molar value.

Reference set, count: 4
- COMPOUND: "CC(C)n1nc(-c2ccccc2)c2c1CN(C#N)C2"
  STUDY_TARGET: "Ubiquitin carboxyl-terminal hydrolase 7 (Homo sapiens, UniProt Q93009)"
  RESULT: "> 5.00"
- COMPOUND: "Cc1cc(Cl)cc(-c2ncnc3cc(CN4C(=O)C5C(C4=O)C5(C)C)sc23)c1C[C@@H]1CNCCO1 (stereo partly shown)"
  STUDY_TARGET: "Ubiquitin carboxyl-terminal hydrolase 7 (Homo sapiens, UniProt Q93009)"
  RESULT: "> 8.00"
- COMPOUND: "Cc1cc(Cl)cc(-c2ccnc3cc(Cn4c(=O)ccn(C)c4=O)sc23)c1CN1C[C@@H](C)NC[C@@H]1C"
  STUDY_TARGET: "Ubiquitin carboxyl-terminal hydrolase 7 (Homo sapiens, UniProt Q93009)"
  RESULT: "> 8.00"
- COMPOUND: "Cc1cc(Cl)cc(-c2ccnc3cc(CN4C(=O)C5CC5C4=O)sc23)c1C[C@@H]1CNC[C@@H](C)O1 (stereo partly shown)"
  STUDY_TARGET: "Ubiquitin carboxyl-terminal hydrolase 7 (Homo sapiens, UniProt Q93009)"
  RESULT: "> 8.00"

Dear colleague, please send me the reported pIC50 for O=C(C1Cc2cc(Cl)cc(-c3ccnc4[nH]ccc34)c2O1)N1CCC(O)(c2ccncc2)CC1 (stereo not shown) when you can.
> 6.00

Identify measured pIC50 associated with `N#CN1Cc2cnn(-c3cccc(C(=O)NCc4ccccc4)c3)c2C1`
4.52 to 5.00

Name the recorded pIC50 of the compound listed here: Cc1cc(Cl)cc(-c2ccnc3cc(CN4C(=O)C5CC5C4=O)sc23)c1CC1CNCC2(CC2)O1 (stereo not shown)
> 8.00

====

// compounds with IC50 on Ubiquitin carboxyl-terminal hydrolase 7 (Homo sapiens, UniProt Q93009), multi-source literature

Supply IC50 measured with Ubiquitin carboxyl-terminal hydrolase 7 (Homo sapiens, UniProt Q93009) for `OC1(c2cc3nccc(-c4cc(Cl)cc5c4O[C@@H](c4onc6c4CNCC6)C5)c3s2)COC1` .
< 1000 nM

State IC50 (Ubiquitin carboxyl-terminal hydrolase 7 (Homo sapiens, UniProt Q93009)) of Cc1ccc(CN2CCNC[C@@H]2C)c(-c2ncnc3cc(CN4C(=O)C5CC5C4=O)sc23)c1 (some centres unmarked) .
> 100 nM

State, for Ubiquitin carboxyl-terminal hydrolase 7 (Homo sapiens, UniProt Q93009), measured IC50 of the compound listed here: `COc1ccc(C(C)C)cc1-c1c2c(nn1C)CN(C#N)C2`
10000 to 30000 nM

Give reported IC50 for Cc1cc(Cl)cc(-c2ncnc3cc(CN4C(=O)C5C(C4=O)C5(C)C)sc23)c1CC1CNCCO1 (centres unmarked) (Ubiquitin carboxyl-terminal hydrolase 7 (Homo sapiens, UniProt Q93009))
< 10 nM

Provide Ubiquitin carboxyl-terminal hydrolase 7 (Homo sapiens, UniProt Q93009) IC50 reading for Cc1cc(Cl)cc(-c2ccnc3cc(CN4C(=O)C5CC5C4=O)sc23)c1CC1CNCCOC1 (centres unmarked) .
< 10 nM

Name the value of IC50 reported for Cc1cc(Cl)cc(-c2ccnc3cc(CN4C(=O)C5CC5C4=O)sc23)c1CN1C[C@H](C)NC[C@@H]1C (some centres unmarked) when tested on Ubiquitin carboxyl-terminal hydrolase 7 (Homo sapiens, UniProt Q93009).
< 10 nM

Send back Ubiquitin carboxyl-terminal hydrolase 7 (Homo sapiens, UniProt Q93009) IC50 of CCC(O)c1cc2nccc(-c3cc(Cl)cc4c3O[C@@H](c3ocnc3CN3CCOCC3)C4)c2s1 (some centres unmarked) only.
1000 to 10000 nM

Consider the compound Cc1cc(Cl)cc(-c2ncnc3cc(CN4C(=O)CCC4C)sc23)c1CN1[C@@H](C)CNC[C@@H]1C (some centres unmarked) tested on Ubiquitin carboxyl-terminal hydrolase 7 (Homo sapiens, UniProt Q93009); state its IC50.
> 100 nM

Provide the reported IC50 (system: Ubiquitin carboxyl-terminal hydrolase 7 (Homo sapiens, UniProt Q93009)) for `O=c1ccn(CC(F)F)c(=O)n1Cc1cc2nccc(-c3cc(C(F)(F)F)cc4c3N([C@H]3CCNC3)CCC4)c2s1`
< 10 nM

Identify measured IC50 obtained with Ubiquitin carboxyl-terminal hydrolase 7 (Homo sapiens, UniProt Q93009) for `O=C([C@H]1Cc2cc(Cl)cc(-c3ccnc4cc(CO)sc34)c2O1)N1CCn2c(nnc2C(F)(F)F)C1` .
1000 to 10000 nM

Tell me IC50 of `Cc1cnn(Cc2cc3nccc(-c4cc(Cl)cc5c4N([C@@H]4CN[C@@H](CO)C4)CCO5)c3s2)c(=O)c1` when tested on Ubiquitin carboxyl-terminal hydrolase 7 (Homo sapiens, UniProt Q93009).
< 10 nM

Send back Ubiquitin carboxyl-terminal hydrolase 7 (Homo sapiens, UniProt Q93009) IC50 of `CC(C)C(=O)NCc1cc2nccc(-c3cc(Cl)cc4c3O[C@@H](c3onc5c3CNCC5)C4)c2s1` only.
< 1000 nM

Please indicate recorded IC50 of Cc1cc(Cl)cc(-c2ccnc3cc(CN4C(=O)C5CC5C4=O)sc23)c1CN1CCCNC(C)C1 (centres unmarked) measured with Ubiquitin carboxyl-terminal hydrolase 7 (Homo sapiens, UniProt Q93009).
10 to 100 nM

Report its IC50 with Ubiquitin carboxyl-terminal hydrolase 7 (Homo sapiens, UniProt Q93009) as the test system: `Cc1nn(-c2ccc(C(N)=O)cc2)c2c1CN(C#N)C2`
< 10000 nM

Consider the compound `O=C([C@H]1Cc2cc(Cl)cc(-c3ccnc4cc(CN5CCCCS5(=O)=O)sc34)c2O1)N1CCNCC1` tested on Ubiquitin carboxyl-terminal hydrolase 7 (Homo sapiens, UniProt Q93009); state its IC50.
< 1000 nM

Look up and report IC50, with Ubiquitin carboxyl-terminal hydrolase 7 (Homo sapiens, UniProt Q93009) as system, for `Cc1cc(Cl)cc(-c2ncnc3cc(CN4C(=O)CNC4=O)sc23)c1C[C@@H]1CNCCO1`
< 10 nM

Report its IC50 with Ubiquitin carboxyl-terminal hydrolase 7 (Homo sapiens, UniProt Q93009) as the test system: `O=C([C@H]1Cc2cc(Cl)cc(-c3ccnc4ccsc34)c2O1)N1CCC(N2CCCCC2)CC1`
1000 to 10000 nM
